These data points were gathered from patent US9023865B2.

- Target Or Test System: Active Human ERK2 (hERK2) (Homo sapiens (Human))
- Sequence (P28482 whole entry): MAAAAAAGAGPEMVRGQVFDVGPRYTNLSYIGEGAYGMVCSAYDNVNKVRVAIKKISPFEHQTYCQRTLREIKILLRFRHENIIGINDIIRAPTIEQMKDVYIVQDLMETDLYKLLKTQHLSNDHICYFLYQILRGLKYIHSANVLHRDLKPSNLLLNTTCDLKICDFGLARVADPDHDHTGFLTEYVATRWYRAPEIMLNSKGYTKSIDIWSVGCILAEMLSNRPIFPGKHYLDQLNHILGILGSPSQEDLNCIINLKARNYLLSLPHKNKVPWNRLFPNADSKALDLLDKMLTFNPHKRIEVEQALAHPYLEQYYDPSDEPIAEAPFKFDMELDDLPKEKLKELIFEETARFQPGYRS
- Assay Procedure: Active Human ERK2 (hERK2) Activity Assay (IMAP-FP)
- Assay type: biochemical
- Experimental Setup: phosphorylated active hERK2, 30 μM ATP; average; read-out: ERK 2 Human average IC50
Measurement Type: IC50 (nM)

Compound	Observed Value
Cc1cc(-c2n[nH]c3cc(NC(=O)NCc4ccsn4)ncc23)ccn1 [Example 476]	0.587
C[C@@H](NC(=O)Nc1cc2[nH]nc(C(=O)NCc3cccnn3)c2cn1)c1ccccc1 [Example 122]	2.55
Cc1cc(-c2n[nH]c3c(F)c(NC(=O)N[C@H](C)c4ccc(Cl)cc4)ncc23)ccn1 [Example 534]	0.509
COC[C@@H](NC(=O)Nc1cc2[nH]nc(-c3ccnc(N4CCOCC4)c3)c2cn1)c1ccc(F)cc1 [Example 298]	1.17
COC[C@H](NC(=O)Nc1cc2[nH]nc(-c3ccc(F)cc3)c2cn1)c1ccccn1 [Example 486]	23.5
Cc1cc(-c2n[nH]c3cc(NC(=O)NCCC4COc5ccccc5O4)ncc23)ccn1 (stereo not shown) [Example 373]	1.07
Cc1cc(-c2n[nH]c3cc(NC(=O)N[C@H](C)c4ccncc4)ncc23)ccn1 [Example 236]	1.51

* * *

- Target Or Test System: Active Human ERK2 (hERK2) (Homo sapiens (Human))
- Assay Procedure: Active Human ERK2 (hERK2) Activity Assay (IMAP-FP)
- Assay type: biochemical
- Experimental Setup: phosphorylated active hERK2, 30 μM ATP; average; read-out: ERK 2 Human average IC50
Just a reminder that ties go to Not met: only IC50 strictly below 2 nM counts as Met.

Compound	Assigned Label
CCNC(=O)c1n[nH]c2cc(NC(=O)N[C@H](C)c3ccccc3)ncc12	Not met
Cc1cc(-c2n[nH]c3cc(NC(=O)NCc4ccc(F)cc4F)ncc23)ccn1	Met
Cc1cc(-c2n[nH]c3cc(NC(=O)N[C@@H]4CCS(=O)(=O)c5ccccc54)ncc23)ccn1	Met
C[C@@H](NC(=O)Nc1cc2[nH]nc(-c3cncc(F)c3)c2cn1)c1ccc(F)cc1	Not met
C[C@@H](NC(=O)Nc1cc2[nH]nc(C(=O)NCC(F)(F)CN3CCCC3)c2cn1)c1ccccc1	Not met
COc1cc(-c2n[nH]c3cc(NC(=O)N[C@H](C)c4ccccc4)ncc23)ccn1	Met
CC[C@H](NC(=O)Nc1cc2[nH]nc(-c3ccnc(C)c3)c2cn1)c1ccccn1	Not met
CCC(NC(=O)Nc1cc2[nH]nc(-c3ccnc(C)c3)c2cn1)c1ccc(Cl)cc1 (stereo not shown)	Not met
COC[C@@H](NC(=O)Nc1cc2[nH]nc(C3CC3)c2cn1)c1cc(F)ccn1	Not met
COC(=O)C1CC1c1n[nH]c2cc(NC(=O)N[C@H](C)c3ccccc3)ncc12 (stereo partly shown) [Example 643]	Met
Cc1cc(-c2n[nH]c3cc(NC(=O)NC4CCc5ccccc54)ncc23)ccn1 (stereo not shown)	Not met
CCS(=O)(=O)c1ccc(-c2n[nH]c3cc(NC(=O)N[C@H](C)c4ccc(F)cc4)ncc23)cn1	Not met
CN1CC[C@@H](CNC(=O)Nc2cc3[nH]nc(-c4ccc(F)cc4)c3cn2)C1	Met
CO[C@@H](C)CNC(=O)Nc1cc2[nH]nc(-c3ccnc(C)c3)c2cn1	Met
Cc1cc(-c2n[nH]c3cc(NC(=O)NCc4ccc5c(c4)CNC5=O)ncc23)ccn1	Met
Cc1cc(-c2n[nH]c3cc(NC(=O)NCc4csc5ccccc45)ncc23)ccn1	Met
Cc1cc(-c2n[nH]c3cc(NC(=O)NCC4(C)CCCO4)ncc23)ccn1 (stereo not shown)	Met
Cc1cc(-c2n[nH]c3cc(NC(=O)N[C@@H]4CCSc5ccccc54)ncc23)ccn1	Not met
Cc1cc(-c2n[nH]c3cc(NC(=O)N[C@H]4CCOc5cc(F)ccc54)ncc23)ccn1	Not met
O=C(NCC1CCOC1)Nc1cc2[nH]nc(-c3ccc(F)cc3)c2cn1 (stereo not shown)	Not met
Cc1cc(-c2n[nH]c3cc(NC(=O)NCc4ccc5[nH]cnc5c4)ncc23)ccn1	Not met
Cc1cc(-c2n[nH]c3cc(NC(=O)NC(CCO)c4ccccc4)ncc23)ccn1 (stereo not shown)	Met
